All values here come from patent US9902696B2.

Target: recombinant human baculovirus-expressed GST-tagged FASN (Homo sapiens)
Construct: GST
Sequence (P49327 whole entry): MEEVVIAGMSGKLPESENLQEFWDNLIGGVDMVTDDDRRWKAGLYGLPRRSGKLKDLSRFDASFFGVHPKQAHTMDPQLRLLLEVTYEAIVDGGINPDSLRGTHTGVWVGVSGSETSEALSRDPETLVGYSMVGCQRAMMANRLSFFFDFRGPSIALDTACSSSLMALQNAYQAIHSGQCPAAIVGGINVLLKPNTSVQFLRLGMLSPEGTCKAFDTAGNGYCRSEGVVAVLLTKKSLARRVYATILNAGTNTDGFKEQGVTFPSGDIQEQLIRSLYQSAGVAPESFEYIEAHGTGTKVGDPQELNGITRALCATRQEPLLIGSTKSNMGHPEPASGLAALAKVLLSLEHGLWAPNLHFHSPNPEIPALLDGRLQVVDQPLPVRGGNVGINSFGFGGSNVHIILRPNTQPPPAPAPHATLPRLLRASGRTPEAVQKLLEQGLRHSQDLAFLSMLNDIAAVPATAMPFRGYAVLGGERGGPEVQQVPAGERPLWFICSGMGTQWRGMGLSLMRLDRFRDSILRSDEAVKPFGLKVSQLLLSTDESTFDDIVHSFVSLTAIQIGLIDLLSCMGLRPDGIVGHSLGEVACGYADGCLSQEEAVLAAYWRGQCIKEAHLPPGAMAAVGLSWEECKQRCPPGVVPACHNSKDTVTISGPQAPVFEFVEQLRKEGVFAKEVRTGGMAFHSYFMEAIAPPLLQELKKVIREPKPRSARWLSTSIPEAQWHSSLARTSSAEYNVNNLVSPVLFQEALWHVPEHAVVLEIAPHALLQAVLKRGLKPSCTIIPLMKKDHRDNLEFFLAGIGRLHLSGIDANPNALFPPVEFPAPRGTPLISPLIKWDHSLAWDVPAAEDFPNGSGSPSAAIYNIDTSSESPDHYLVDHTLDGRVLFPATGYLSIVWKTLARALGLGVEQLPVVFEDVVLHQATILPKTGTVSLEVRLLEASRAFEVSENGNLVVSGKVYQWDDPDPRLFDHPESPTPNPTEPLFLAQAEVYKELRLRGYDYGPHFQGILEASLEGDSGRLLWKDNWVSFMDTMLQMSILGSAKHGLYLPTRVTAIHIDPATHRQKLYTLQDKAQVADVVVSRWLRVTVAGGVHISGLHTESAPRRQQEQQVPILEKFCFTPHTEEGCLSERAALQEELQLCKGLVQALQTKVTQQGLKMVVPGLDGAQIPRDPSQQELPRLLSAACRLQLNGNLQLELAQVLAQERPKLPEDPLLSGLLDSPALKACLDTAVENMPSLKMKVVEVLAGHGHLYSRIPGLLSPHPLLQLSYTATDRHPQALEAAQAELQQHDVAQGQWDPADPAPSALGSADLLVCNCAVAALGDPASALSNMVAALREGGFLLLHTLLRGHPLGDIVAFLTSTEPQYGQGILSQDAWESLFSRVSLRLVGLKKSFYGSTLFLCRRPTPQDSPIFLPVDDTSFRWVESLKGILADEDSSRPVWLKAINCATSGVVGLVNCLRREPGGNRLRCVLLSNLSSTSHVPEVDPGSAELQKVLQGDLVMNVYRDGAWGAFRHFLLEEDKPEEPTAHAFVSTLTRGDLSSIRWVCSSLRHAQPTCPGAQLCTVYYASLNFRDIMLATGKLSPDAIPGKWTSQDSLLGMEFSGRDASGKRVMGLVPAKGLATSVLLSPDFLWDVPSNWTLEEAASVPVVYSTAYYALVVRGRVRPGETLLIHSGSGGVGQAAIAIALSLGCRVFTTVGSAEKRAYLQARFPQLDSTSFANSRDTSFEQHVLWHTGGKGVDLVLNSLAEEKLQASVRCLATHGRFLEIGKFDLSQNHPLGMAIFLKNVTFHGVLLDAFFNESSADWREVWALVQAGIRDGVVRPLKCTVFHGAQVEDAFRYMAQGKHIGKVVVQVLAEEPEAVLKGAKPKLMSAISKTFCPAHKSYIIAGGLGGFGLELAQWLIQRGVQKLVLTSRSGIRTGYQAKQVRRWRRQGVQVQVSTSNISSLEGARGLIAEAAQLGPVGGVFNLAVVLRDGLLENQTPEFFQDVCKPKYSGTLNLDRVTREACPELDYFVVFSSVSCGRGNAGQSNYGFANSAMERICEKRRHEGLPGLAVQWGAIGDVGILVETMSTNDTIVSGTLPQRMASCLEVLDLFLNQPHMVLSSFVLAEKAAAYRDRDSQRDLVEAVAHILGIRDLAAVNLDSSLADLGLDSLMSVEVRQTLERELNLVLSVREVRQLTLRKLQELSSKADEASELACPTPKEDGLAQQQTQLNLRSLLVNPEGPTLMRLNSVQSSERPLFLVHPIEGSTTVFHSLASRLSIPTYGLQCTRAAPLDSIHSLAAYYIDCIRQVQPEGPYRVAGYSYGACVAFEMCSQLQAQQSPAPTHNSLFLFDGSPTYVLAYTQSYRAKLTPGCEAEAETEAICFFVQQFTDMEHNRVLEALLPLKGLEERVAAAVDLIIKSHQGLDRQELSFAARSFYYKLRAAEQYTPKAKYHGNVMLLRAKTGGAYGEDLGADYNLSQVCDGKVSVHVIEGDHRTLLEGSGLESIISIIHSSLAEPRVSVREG
Assay: FASN enzyme activity assay, fluorescence-based detection of CoA with CPM
Assay type: biochemical
Settings: 5 nM FASN, 150 μM NADPH, 10 μM acetyl-CoA, 25 μM malonyl-CoA, 90 minutes incubation; read-out: IC50 data for Compounds of Formulae I-V/V(a): Activity
pIC50: −log10 of the molar value. Where a name gives a salt, the structure may show the parent alone.

molecule | pIC50
CCC(=O)N1CCC(Oc2ccc(-c3cc(C)c4cccnc4c3)cc2)CC1 [Example 346, HCl] | 6.00 to 7.00
CCOc1c(-c2ccc(OC3CCN(C(=O)CC)CC3)cc2)ccc2cccnc12 [Example 167, HCl] | 7.00 to 9.00
CCNC(=O)N1CCC(Oc2ccc(-c3ccc4cccnc4c3C)cc2)CC1 [Example 88] | 7.00 to 9.00
CCC(=O)N1CCC(Oc2ccc(-c3ccc4scnc4c3)cc2)CC1 [Example 269, TFA salt] | 6.00 to 7.00
COc1nccc2cc(-c3ccc(OC4CCN(C(=O)C5CCC5)CC4)cc3)ccc12 [Example 434] | 6.00 to 7.00
CCC(=O)N1CCC(Oc2ccc(-c3ccc4cccnc4c3C(N)=O)cc2)CC1 [Example 337] | 5.00 to 6.00
CCC(=O)N1CCC(Oc2ccc(-c3cnc4ccccc4c3)c(F)c2)CC1 [Example 200] | 7.00 to 9.00
Cc1cc2nccn2cc1-c1ccc(OC2CCN(C(=O)[C@H]3CCCO3)CC2)cc1 [Example 292] | 6.00 to 7.00
Cc1cc2cccnc2cc1-c1ccc(OC2CCN(C(=O)[C@H]3CCCO3)CC2)cc1 [Example 275] | 6.00 to 7.00
COc1ccc2ncc(-c3ccc(OC4CCN(C(=O)[C@H]5CCCO5)CC4)cc3)cc2c1 [Example 450, HCl] | 7.00 to 9.00
CC(C)C(=O)N1CCC(Oc2ccc(-c3ccc(C#N)cc3)cc2)CC1 [Example 494] | 5.00 to 6.00
COC(=O)N1CCC(Oc2ccc(-c3cnc4ccccc4c3)cc2F)CC1 [Example 15] | 5.00 to 6.00
CCC(=O)N1CCC(Oc2ccc(-c3ccc(OC)c(OC)c3)cc2)CC1 [Example 491] | 6.00 to 7.00
O=C([C@H]1CCCO1)N1CCC(Oc2ccc(-c3cnc4ccsc4c3)cc2)CC1 [Example 263, TFA salt] | 7.00 to 9.00
Cc1cnc(C)c2ccc(-c3ccc(OC4CCN(C(=O)[C@H]5CCCO5)CC4)cc3)cc12 [Example 471, HCl] | 7.00 to 9.00
O=C(C1CC1)N1CCC(Oc2cccc(-c3cnc4ccccc4c3)c2)CC1 [Example 497] | 5.00 to 6.00
O=C(C1CC1)N1CCC(Oc2ccc(-c3cnc4c(c3)CCCC4)cc2)CC1 [Example 19] | 5.00 to 6.00
